- subject-of-test: Genome polyprotein (dengue virus type 2)
- Sequence (P29990 1346-1475 limits assumed): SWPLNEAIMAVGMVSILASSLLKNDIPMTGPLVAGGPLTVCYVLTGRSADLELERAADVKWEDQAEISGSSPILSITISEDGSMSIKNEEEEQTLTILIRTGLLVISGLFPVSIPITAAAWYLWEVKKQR
- Sequence (P29990 1476-2093 limits assumed): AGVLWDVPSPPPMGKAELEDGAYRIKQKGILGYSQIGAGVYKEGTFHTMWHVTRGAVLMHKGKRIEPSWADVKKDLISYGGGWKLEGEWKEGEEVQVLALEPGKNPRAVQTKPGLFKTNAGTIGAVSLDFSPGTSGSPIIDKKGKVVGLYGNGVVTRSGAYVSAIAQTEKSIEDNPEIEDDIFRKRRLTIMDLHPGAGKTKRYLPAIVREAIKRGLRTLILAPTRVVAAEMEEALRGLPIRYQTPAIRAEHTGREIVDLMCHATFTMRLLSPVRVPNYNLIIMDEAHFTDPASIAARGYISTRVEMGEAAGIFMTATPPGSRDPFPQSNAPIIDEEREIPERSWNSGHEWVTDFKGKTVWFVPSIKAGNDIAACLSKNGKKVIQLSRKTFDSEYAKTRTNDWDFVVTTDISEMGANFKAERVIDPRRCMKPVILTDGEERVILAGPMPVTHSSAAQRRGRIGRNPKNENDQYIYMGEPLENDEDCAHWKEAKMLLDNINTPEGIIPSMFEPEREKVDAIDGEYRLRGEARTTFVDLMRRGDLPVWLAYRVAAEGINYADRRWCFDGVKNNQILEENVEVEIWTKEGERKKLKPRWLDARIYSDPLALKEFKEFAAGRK
# log10 IC50 per entry
measured-endpoint: log10 IC50 (log10 of the value in nM)

[
  {
    "test-smiles": "NCc1ccc(-c2ncc(OCC3CCNCC3)nc2-c2ccc3[nH]ccc3c2)cc1",
    "log10 IC50": 2.81
  },
  {
    "test-smiles": "CC(C)(C)C(=O)OCc1ccc(-c2ncc(OCC3CCNCC3)nc2-c2ccc(COC(=O)C(C)(C)C)cc2)cc1",
    "log10 IC50": 4.13
  },
  {
    "test-smiles": "NC(=O)c1ccc(-c2ncc(OCC3CCNCC3)nc2-c2ccc(-c3ccoc3)cc2)cc1",
    "log10 IC50": 2.99
  },
  {
    "test-smiles": "NCc1ccc(-c2ncc(OCC3CCNCC3)nc2-c2ccc(-c3cn[nH]c3)cc2)cc1",
    "log10 IC50": 2.32
  },
  {
    "test-smiles": "NCc1ccc(-c2ncc(OCC3CCNCC3)nc2-c2ccc(C3CCOCC3)cc2)cc1",
    "log10 IC50": 3.38
  }
]
